Biological target: human MC4-R (Homo sapiens, UniProt P32245)
Construct: expressed in transfected cells; host or cells: HEK293 T-REx (tetracycline-regulated, Invitrogen); cell line from Palatin Technologies with license from the University of Michigan
Sequence (P32245 whole entry): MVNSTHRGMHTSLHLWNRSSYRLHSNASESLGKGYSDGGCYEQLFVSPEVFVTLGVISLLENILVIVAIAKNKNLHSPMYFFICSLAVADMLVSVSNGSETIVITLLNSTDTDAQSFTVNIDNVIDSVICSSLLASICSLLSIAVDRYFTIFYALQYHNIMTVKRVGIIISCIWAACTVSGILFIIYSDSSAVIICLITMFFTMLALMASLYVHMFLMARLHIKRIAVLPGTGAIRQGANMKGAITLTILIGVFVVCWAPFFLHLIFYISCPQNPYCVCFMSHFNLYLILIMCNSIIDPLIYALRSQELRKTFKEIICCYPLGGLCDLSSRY
Assay: cAMP functional assay in HEK-293 T-REx cells expressing human MC4-R, induced with doxycycline 0.1 ng/mL (low density)
Type: cell-based
Details: HEK293-T-REx; maximal cAMP stimulation, NDP-α-MSH = 100%; doxycycline 0.1 ng/mL; averages of all comparable assays; read-out: Emax
Method: A HEK293 cell line transfected with human MC4-R (from Palatin Technologies, US, with license from the University of Michigan) was used. The human MC4-R was introduced to HEK293 by using the T-REx™ System, Invitrogen. The T-REx™ System employs a tetracycline-regulated mammalian expression system that uses regulatory elements from the E. coli Tn10-encoded tetracycline (Tet) resistance operon. […] Cells were then counted and volume was adjusted to 5×10^4 cells per 200 μL. […]
Bridge positions count the residues as written; N and C are the ends. Square brackets hold non-standard residues; d marks the D form. Peptide text beside a SMILES is read from it. Orn = NCCC[C@H](N)C(=O)O
metric: Emax (%)

Enter recorded Emax with human MC4-R (Homo sapiens, UniProt P32245) for CC(=O)N[C@@H](CCCNC(=N)N)C(=O)N[C@H]1CCC(=O)NCCC[C@@H](C(N)=O)NC(=O)[C@H](Cc2c[nH]c3ccccc23)NC(=O)[C@H](CCCNC(=N)N)NC(=O)[C@@H](Cc2ccccc2)NC(=O)[C@H](CCCCN)NC1=O [No. 16] (Ac-REK[dF]RW[Orn]-NH2; lactam 2-7) here.
104

Provide Emax, recorded with human MC4-R (Homo sapiens, UniProt P32245), of CC(=O)N[C@@H](CCCNC(=N)N)C(=O)N[C@H]1CC(=O)NCCCC[C@@H](C(=O)O)NC(=O)[C@H](Cc2c[nH]c3ccccc23)NC(=O)[C@H](CCCNC(=N)N)NC(=O)[C@@H](Cc2ccccc2)NC(=O)[C@H](Cc2c[nH]cn2)NC1=O [reference compound]
91

// fetch Emax for CC(=O)N[C@@H](CCCNC(=N)N)C(=O)N[C@H]1CC(=O)NCCCC[C@@H](C(N)=O)NC(=O)[C@H](Cc2c[nH]c3ccccc23)NC(=O)[C@H](CCCNC(=N)N)NC(=O)[C@@H](Cc2ccccc2)NC(=O)[C@H](CCCNC(N)=O)NC1=O [reference compound] ; system: human MC4-R (Homo sapiens, UniProt P32245)
69

Answer with Emax of CC(=O)N[C@@H](CCCNC(=N)N)C(=O)N[C@H]1CCCNC(=O)CC[C@@H](C(N)=O)NC(=O)[C@H](Cc2c[nH]c3ccccc23)NC(=O)[C@H](CCCNC(=N)N)NC(=O)[C@@H](Cc2ccccc2)NC(=O)[C@@H]2CCCN2C1=O [No. 47] (Ac-R[Orn]P[dF]RWE-NH2; lactam 2-7) measured for human MC4-R (Homo sapiens, UniProt P32245).
54

* * *

molecular target: human MC4-R (Homo sapiens); construct: expressed in transfected cells; host or cells: HEK293 T-REx (tetracycline-regulated, Invitrogen); cell line from Palatin Technologies with license from the University of Michigan; experiment: cAMP functional assay in HEK-293 T-REx cells expressing human MC4-R, induced with doxycycline 0.1 ng/mL (low density); format: cell-based; settings: human MC4-R cAMP assay, doxycycline 0.1 ng/mL; averages of all comparable assays; read-out: Ec50
pEC50: −log10 of the molar value. Bridge positions count the residues as written; N and C are the ends. Square brackets hold non-standard residues; d marks the D form. Peptide text beside a SMILES is read from it. Orn = NCCC[C@H](N)C(=O)O
metric: pEC50

Would you please look over these solved cases?
Provide measured pEC50 on human MC4-R (Homo sapiens) for CC(=O)N[C@@H](CCCNC(=N)N)C(=O)N[C@H]1CCCNC(=O)CC[C@@H](C(N)=O)NC(=O)[C@H](Cc2c[nH]c3ccccc23)NC(=O)[C@H](CCCNC(=N)N)NC(=O)[C@@H](Cc2ccccc2)NC(=O)[C@H](CCN)NC1=O [No. 43] please.
10.00

GET pEC50 | system: human MC4-R (Homo sapiens) | item: CC(=O)N[C@@H](CCCNC(=N)N)C(=O)N[C@H]1CCC(=O)NCCC[C@@H](C(N)=O)NC(=O)[C@H](Cc2c[nH]c3ccccc23)NC(=O)[C@H](CCCNC(=N)N)NC(=O)[C@@H](Cc2ccccc2)NC(=O)[C@H](CCN)NC1=O [No. 6]
9.52

Enter recorded pEC50 with human MC4-R (Homo sapiens) for CC(=O)N[C@@H](CCCNC(=N)N)C(=O)N[C@H]1CCCNC(=O)CC[C@@H](C(N)=O)NC(=O)[C@H](Cc2c[nH]c3ccccc23)NC(=O)[C@H](CCCNC(=N)N)NC(=O)[C@@H](Cc2ccccc2)NC(=O)[C@H](Cc2c[nH]cn2)NC1=O [No. 38] (Ac-R[Orn]H[dF]RWE-NH2; lactam 2-7) here.
9.00

# lookup: human MC4-R (Homo sapiens) pEC50, key = CC(=O)N[C@@H](CCCNC(=N)N)C(=O)N[C@H]1CCC(=O)NCCC[C@@H](C(=O)O)NC(=O)[C@H](Cc2c[nH]c3ccccc23)NC(=O)[C@H](CCCNC(=N)N)NC(=O)[C@@H](Cc2ccccc2)NC(=O)[C@H](CCCN)NC1=O [No. 7]
8.40

I. CC(=O)N[C@@H](CCCNC(=N)N)C(=O)N[C@H]1CCC(=O)NCCC[C@@H](C(N)=O)NC(=O)[C@H](Cc2c[nH]c3ccccc23)NC(=O)[C@H](CCCNC(=N)N)NC(=O)[C@@H](Cc2ccccc2)NC(=O)[C@H](CCC(N)=O)NC1=O [No. 12]
II. CC(=O)N[C@H](CCCNC(=N)N)C(=O)N[C@H]1CCCNC(=O)CC[C@@H](C(N)=O)NC(=O)[C@H](Cc2c[nH]c3ccccc23)NC(=O)[C@H](CCCNC(=N)N)NC(=O)[C@@H](Cc2ccccc2)NC(=O)[C@H](Cc2c[nH]cn2)NC1=O [No. 39]
I need your help: which of the pair I , II has higher pEC50? In your reply, give the label of the chosen option.
II
(II: 9.70, I: 8.22)

* * *

molecular target: human MC4-R (Homo sapiens); construct: expressed in transfected cells; host or cells: HEK293 T-REx (tetracycline-regulated, Invitrogen); cell line from Palatin Technologies with license from the University of Michigan; assay: cAMP functional assay in HEK-293 T-REx cells expressing human MC4-R, induced with doxycycline 0.1 ng/mL (low density); assay type: cell-based; details: human MC4-R cAMP assay, doxycycline 0.1 ng/mL; averages of all comparable assays; read-out: Ec50
metric: EC50 (nM)

a. CC(=O)N[C@@H](CCCNC(=N)N)C(=O)N[C@H]1CCC(=O)NCCC[C@@H](C(N)=O)NC(=O)[C@H](Cc2c[nH]c3ccccc23)NC(=O)[C@H](CCCNC(=N)N)NC(=O)[C@@H](Cc2ccccc2)NC(=O)[C@H](CCCN)NC1=O
b. CC(=O)N[C@@H](CCCNC(=N)N)C(=O)N[C@H]1CC(=O)NCCCC[C@@H](C(=O)O)NC(=O)[C@H](Cc2c[nH]c3ccccc23)NC(=O)[C@H](CCCNC(=N)N)NC(=O)[C@@H](Cc2ccccc2)NC(=O)[C@H](CCC(N)=O)NC1=O [reference compound]
Looking only at measured EC50, which entry is lower, a or b ? Refer to your chosen item by its label in the answer.
a

* * *

Reported Ki values follow for various compounds
Target: human MC4-R (Homo sapiens)
Construct: expressed in transfected cells; host or cells: HEK293 T-REx (tetracycline-regulated, Invitrogen); cell line from Palatin Technologies with license from the University of Michigan
Experiment: Competitive inhibition binding assay with [I125]-NDP-α-MSH or Eu-NDP-α-MSH, membranes of HEK-293 cells expressing recombinant hMC4-R
Conditions: human MC4-R; averages of all comparable assays; read-out: Ki
Procedure: A competitive inhibition binding assay was performed using membrane homogenates prepared from HEK-293 cells that express recombinant hMC4-R, hMC3-R, or hMC5-R, and from B-16 mouse melanoma cells (containing endogenous MC1-R). […] Filters were dried and counted in a gamma counter for bound radioactivity. […] Maximal specific binding (100%) was defined as the difference in radioactivity (cpm) bound to cell membranes in the absence and presence of 1 μM NDP-α-MSH. […]
Bridge positions count the residues as written; N and C are the ends. Square brackets hold non-standard residues; d marks the D form. Peptide text beside a SMILES is read from it.
Note: unit nM is implicit; provide only the numeric part.

State recorded Ki with human MC4-R (Homo sapiens), entry CC(=O)N[C@@H](CCCCN)C(=O)N[C@H]1CC(=O)NCCCC[C@@H](C(N)=O)NC(=O)[C@H](Cc2c[nH]c3ccccc23)NC(=O)[C@H](CCCNC(=N)N)NC(=O)[C@@H](Cc2ccccc2)NC(=O)[C@H](Cc2c[nH]cn2)NC1=O [reference compound] (Ac-KDH[dF]RWK-NH2; lactam 2-7) , no comment.
9

Report value only: Ki, human MC4-R (Homo sapiens), CC(=O)N[C@@H](CCCNC(=N)N)C(=O)N[C@H]1CCC(=O)NCCC[C@@H](C(N)=O)NC(=O)[C@H](Cc2c[nH]c3ccccc23)NC(=O)[C@H](CCCNC(=N)N)NC(=O)[C@@H](Cc2ccccc2)NC(=O)[C@H](CCS(C)(=O)=O)NC1=O [No. 13]
8

Field: next compound
Report the value of Ki obtained on human MC4-R (Homo sapiens) for CC(=O)N[C@@H](CCCNC(=N)N)C(=O)N[C@H]1CC(=O)NCCCC[C@@H](C(N)=O)NC(=O)[C@H](Cc2c[nH]c3ccccc23)NC(=O)[C@H](CCCNC(=N)N)NC(=O)[C@@H](Cc2ccccc2)NC(=O)[C@H](C)NC1=O [reference compound] (Ac-RDA[dF]RWK-NH2; lactam 2-7) .
19
